Data credit: paper PMC8304084

# study system: T1, Full length UFM1, residues 2–83 (UniProt P61960 2-83)
# T1 construct: N-terminal cloning artefact left after TEV cleavage (vector pET39_Ub19); UFM1 (ubiquitin fold modifier 1), residues 2–83 (processed form ending at Gly83); also called Ubiquitin fold modifier 1; source: E. coli T7 Express, purified (His Trap IMAC, TEV cleavage, reverse IMAC, Superdex gel filtration); not shown: modified ubiquitin tag (Ub19), N-terminal, cleaved
# T1 sequence (P61960 other isoform, or with tags, fused parts or gaps): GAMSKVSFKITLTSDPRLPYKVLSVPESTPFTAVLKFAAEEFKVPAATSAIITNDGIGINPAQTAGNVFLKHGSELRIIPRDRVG
# assay summary: ITC; VP-ITC, 25 °C; UBA5 peptides (~400 µM) titrated into 20–25 µM binding partner; 25 mM HEPES pH 7.5, 100 mM NaCl; one-site model; a single profile for each interaction
# measurement parameters: both partners purified
quantity kind: Kd

Given the binder GAMGPVPDLPEGITVAYTIPK (N-terminal cloning artefact left after TEV cleavage (vector pET39_Ub19); also called isolated R2 peptide; source: E. coli T7 Express, purified (His Trap IMAC, TEV cleavage, reverse IMAC, Superdex gel filtration); not shown: modified ubiquitin tag (Ub19), N-terminal, cleaved) [UBA5 C-terminal region R2, residues 359–376] , what is its reported Kd?
> 100 µM
